system_tested: T1, PUF4 RNA-binding domain (Saccharomyces cerevisiae, UniProt P25339 537-888)
T1 sequence: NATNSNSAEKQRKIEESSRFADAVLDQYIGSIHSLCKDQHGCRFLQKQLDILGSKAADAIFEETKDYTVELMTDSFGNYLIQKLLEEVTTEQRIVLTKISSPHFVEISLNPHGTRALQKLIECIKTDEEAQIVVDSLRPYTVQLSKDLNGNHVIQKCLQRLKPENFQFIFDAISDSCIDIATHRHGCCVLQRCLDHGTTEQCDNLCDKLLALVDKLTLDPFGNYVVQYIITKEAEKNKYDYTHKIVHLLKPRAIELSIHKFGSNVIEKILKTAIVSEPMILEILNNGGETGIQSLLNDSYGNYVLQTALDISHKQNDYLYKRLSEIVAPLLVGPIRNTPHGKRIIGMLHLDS
assay_explanation: Mg; RNA-MaP; 20 mM Na-HEPES pH 7.4, 30 mM KOAc, 0.75 mM MgCl2, 0.1% Tween-20, 5% glycerol, 0.1 mg/mL BSA, 2 mM DTT; 25 C; 0.0125-409.6 nM protein
condition_parameters: tags: N-His6-TEV cleaved; C-SNAP kept, Cy3B-labelled; label: tethered on chip by stalled RNA polymerase
pKd: −log10 of the molar value.

binder	pKd
UCUCUUUGUCUUUAUCUCUU (ssRNA) [Ib_S1_P3E.1_K3.1_C3.1_H3.1_[A4C]_A3.1_[A6T]_F3.1_T3.1]	< 5.64
UCUCUUUGUAGCCGUUCUCUU (ssRNA) [Ic_S1_P4E.1_K4.1_C4.1_H4.1_A4.1_[T5G]_[A6C]_[T7C]_F4.1_[T8G]_[A9T]_T4.1]	< 5.64
ACAAACAGACACUAUAUAACAAAC (ssRNA) [Id_ii_S3_P3E.4_K3.3_C3.2_[C-2A]_[T-1G]_H3.3_A3.1_F3.1_T3.2]	< 5.64
